Test system: G38D mutein
EXPERIMENTAL_PROTOCOL: Substrate spectrum: photometric reduction of keto substrates with NADH
Type: biochemical
TEST_PARAMETERS: relative to acetophenone; 10 mM keto substrate, 0.4 mM NADH, pH 7.0, 30° C.
Procedure: It is known that the NADP(H)-dependent wild-type enzyme can reduce numerous ketones, keto esters and other carbonyl-groupcontaining compounds stereospecifically. Hereinafter, only a few selected keto compounds are tested as substrates, in order to confirm that the substrate-recognition region has not been changed in principle by the change of coenzyme binding site. […] The activity is determined photometrically at 340 nm (30° C.). […]
Attribute: Activity, relative
Only the number, expressed in %, is required.

COC(=O)CC(C)=O
188

Challenge: Any idea what Activity, relative was measured for CCCCCC(C)=O ?
Response given: 207

Challenge: Any idea what Activity, relative was measured for CCOC(=O)C(=O)CCc1ccccc1 [Benzyl pyruvate ethyl ester] ?
Response given: 13

Challenge: Any idea what Activity, relative was measured for COC(=O)C(C)=O ?
Response given: 191

Challenge: Any idea what Activity, relative was measured for CCOC(=O)CC(=O)CCl ?
Response given: 228

Challenge: Any idea what Activity, relative was measured for CCOC(=O)C(=O)CC ?
Response given: 137

Challenge: Any idea what Activity, relative was measured for CCCCC(C)=O ?
Response given: 169

Challenge: Any idea what Activity, relative was measured for CC1CCCCC1=O (stereo not drawn) ?
Response given: 334

Challenge: Any idea what Activity, relative was measured for CCOC(=O)C(=O)C(C)C ?
Response given: 84

* * *

Attribute: Activity, relative
Test system: G38D mutein
EXPERIMENTAL_PROTOCOL: Substrate spectrum: photometric reduction of keto substrates with NADH
Type: biochemical
TEST_PARAMETERS: relative to acetophenone; 10 mM keto substrate, 0.4 mM NADH, pH 7.0, 30° C.
Only the number, expressed in %, is required.

Solved cases (5 shown):
CCC(=O)CC(=O)OC
127
CC(=O)c1ccccc1
100
CC(=O)c1ccc(Cl)cc1
68
CCOC(=O)C(C)=O
260
COC(=O)C(=O)c1ccccc1
10

Proceeding to the next compound to report its Activity, relative.
Challenge: Any idea what Activity, relative was measured for CCOC(=O)CC(C)=O ?
Response given: 88

All figures here come from patent US20030054520A1.
